B1: MNAT1 (parent)
chain: LEEALYEYQPLQIETYGPHVPELE

- Variants of: B1
- assayDetails: protein stability index of a GFP-peptide fusion (GPS, HEK-293T) (PSI 1-6); higher = more stable;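 also: lentivirally expressed fusions sorted by FACS into six bins by GFP to DsRed ratio, PSI derived from sequencing read proportions per bin multiplied by bin number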
- experimentalConditions: c terminus: a fixed tail appended
Everything with protein stability index lower than 3 is label 0; everything else, including exactly 3, is label 1.

Check if protein stability index >= 3 (inclusive). Item: Y16H
label 1

Then this variant: T15N
label 1

Then this variant: E7L
label 0

Then this variant: I13Q
label 1

Then this variant: E3R
label 0

Then this variant: G17Y
label 0

Then this variant: G17V
label 0

Then this variant: P10L
label 1

Then this variant: E22Y
label 0
